Recorded pIC50 values for a group of molecules are listed next.
- testedOn: human Arginine Vasopressin Receptor 1a (AVPR1a) (Homo sapiens (Human), UniProt P37288)
- Sequence (P37288 whole entry): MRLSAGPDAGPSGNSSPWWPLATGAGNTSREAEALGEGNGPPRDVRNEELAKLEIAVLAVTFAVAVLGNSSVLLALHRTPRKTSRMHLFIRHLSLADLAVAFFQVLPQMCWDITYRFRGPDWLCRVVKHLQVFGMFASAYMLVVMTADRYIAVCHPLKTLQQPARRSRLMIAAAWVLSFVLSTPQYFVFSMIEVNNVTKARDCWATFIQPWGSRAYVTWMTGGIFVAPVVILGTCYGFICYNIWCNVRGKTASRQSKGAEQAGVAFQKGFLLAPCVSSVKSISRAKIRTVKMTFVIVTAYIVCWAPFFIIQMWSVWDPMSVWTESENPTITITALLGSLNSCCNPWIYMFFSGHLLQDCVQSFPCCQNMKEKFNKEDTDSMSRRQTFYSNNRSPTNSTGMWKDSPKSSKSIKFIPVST
- protocol: Vasopressin V1A receptor antagonist assay (AVP-evoked calcium, FLIPR, CHO-AVPR1a cells)
- Assay type: cell-based
- particulars: read-out: V1a IC50
pIC50: −log10 of the molar value.

molecule="CC1c2nnc(C3CC4(C3)CN(c3ccc(F)cn3)C4)n2-c2ccc(Cl)cc2CN1C(=O)OC(C)(C)CF (single isomer, unassigned) [Cpd 206A]" reportedresult="> 7.00"
molecule="COC(=O)N1Cc2cc(Cl)ccc2-n2c(nnc2C2CC3(C2)CN(C(=O)C2CC2)C3)C1 [compound 162]" reportedresult="> 7.00"
molecule="O=C(N1Cc2cc(Cl)ccc2-n2c(nnc2C2CC3(C2)CN(c2cnccn2)C3)C1)C1(F)CC1 [compound 81]" reportedresult="> 7.00"
molecule="CN1Cc2cc(Cl)ccc2-n2c(nnc2C2CC3(C2)CN(c2ccc(F)cn2)C3)C1 [compound 1]" reportedresult="> 7.00"
molecule="Fc1ccc(N2CC3(CC(c4nnc5n4-c4ccc(Cl)cc4CN(C4CCC4)C5)C3)C2)nc1 [compound 42]" reportedresult="> 7.00"

Task: Which measured pIC50 value corresponds to COCC(=O)N1CC2(CC(c3nnc4n3-c3ccc(Cl)cc3CN(C)C4)C2)C1 [compound 126] ?
Output: < 6.00

Task: Which measured pIC50 value corresponds to CN1Cc2cc(Cl)ccc2-n2c(nnc2C2CC3(C2)CN(c2cccc(F)n2)C3)C1 [compound 8] ?
Output: > 7.00

Task: Which measured pIC50 value corresponds to Cc1cncc(N2CC3(CC(c4nnc5n4-c4ccc(Cl)cc4CN(C)C5)C3)C2)n1 [compound 237] ?
Output: > 7.00

Task: Which measured pIC50 value corresponds to CN1Cc2cc(Cl)ccc2-n2c(nnc2C2CC3(C2)CN(C(=O)CC2CC2)C3)C1 [compound 32] ?
Output: < 6.00

Task: Which measured pIC50 value corresponds to Cc1ccnc(N2CC3(CC(c4nnc5n4-c4ccc(Cl)cc4CN(C4CC4)C5)C3)C2)c1 [compound 217] ?
Output: > 7.00

Task: Which measured pIC50 value corresponds to CC1c2nnc(C3CC4(C3)CN(c3ncc(F)cn3)C4)n2-c2ccc(Cl)cc2CN1C(=O)OC1CC1 (stereo not shown) [compound 192] ?
Output: > 7.00

Task: Which measured pIC50 value corresponds to COC(=O)N1Cc2cc(Cl)ccc2-n2c(C3CC4(C3)CN(c3ccncn3)C4)nnc2C1C (single isomer, unassigned) [Cpd 184A] ?
Output: > 7.00

Task: Which measured pIC50 value corresponds to CC(C)OC(=O)N1Cc2cc(Cl)ccc2-n2c(C3CC4(C3)CN(c3ncccn3)C4)nnc2C1C (single isomer, unassigned) [Cpd 167B] ?
Output: < 6.00

Task: Which measured pIC50 value corresponds to CC1c2nnc(C3CC4(C3)CN(c3ccc(F)cn3)C4)n2-c2ccc(Cl)cc2CN1C (single isomer, unassigned) [Cpd 179B] ?
Output: 6.30 to 7.00

Task: Which measured pIC50 value corresponds to Fc1cnc(N2CC3(CC(c4nnc5n4-c4ccc(Cl)cc4CN(C4CC4)C5)C3)C2)nc1 [compound 224] ?
Output: > 7.00

###

- testedOn: human Arginine Vasopressin Receptor 1a (AVPR1a) (Homo sapiens (Human))
- protocol: Vasopressin V1A receptor antagonist assay (AVP-evoked calcium, FLIPR, CHO-AVPR1a cells)
- Assay type: cell-based
Recorded IC50 values for a group of molecules are listed next.

Worked cases, IC50 given:
molecule="Clc1ccc2c(c1)CN(C1CC1)Cc1nnc(C3CC4(C3)CN(c3noc(C5CC5)n3)C4)n1-2 [compound 269]" testedon="human Arginine Vasopressin Receptor 1a (AVPR1a) (Homo sapiens (Human))" reportedresult="0.5 to 1 µM"
molecule="Cc1cnc(N2CC3(CC(c4nnc5n4-c4ccc(Cl)cc4CN(C4CC4)C5)C3)C2)nc1 [compound 234]" testedon="human Arginine Vasopressin Receptor 1a (AVPR1a) (Homo sapiens (Human))" reportedresult="0.1 to 0.5 µM"
molecule="CN1Cc2cc(Cl)ccc2-n2c(nnc2C2CC3(C2)CN(S(C)(=O)=O)C3)C1 [compound 34]" testedon="human Arginine Vasopressin Receptor 1a (AVPR1a) (Homo sapiens (Human))" reportedresult="0.5 to 1 µM"
molecule="Fc1ccc(N2CC3(CC(c4nnc5n4-c4ccc(Cl)cc4CNC5)C3)C2)nc1 [compound 60]" testedon="human Arginine Vasopressin Receptor 1a (AVPR1a) (Homo sapiens (Human))" reportedresult="0.1 to 0.5 µM"
molecule="CN1Cc2cc(Cl)ccc2-n2c(nnc2C2CC3(C2)CN(C(=O)OC(C)(C)C)C3)C1 [compound 9]" testedon="human Arginine Vasopressin Receptor 1a (AVPR1a) (Homo sapiens (Human))" reportedresult="0.1 to 0.5 µM"

Task: Lookup: IC50 / human Arginine Vasopressin Receptor 1a (AVPR1a) (Homo sapiens (Human)) / Cc1ccc(N2CC3(CC(c4nnc5n4-c4ccc(Cl)cc4CN(C4(C)CC4)C5)C3)C2)nc1 [compound 265]
Output: 0.1 to 0.5 µM

Task: Lookup: IC50 / human Arginine Vasopressin Receptor 1a (AVPR1a) (Homo sapiens (Human)) / CC(C)N1Cc2cc(Cl)ccc2-n2c(nnc2C2CC3(C2)CN(c2cccnc2)C3)C1 [compound 51]
Output: 0.1 to 0.5 µM

Task: Lookup: IC50 / human Arginine Vasopressin Receptor 1a (AVPR1a) (Homo sapiens (Human)) / CC(=O)N1Cc2cc(Cl)ccc2-n2c(nnc2C2CC3(C2)CN(c2cccnn2)C3)C1 [compound 66]
Output: 0.1 to 0.5 µM

Task: Lookup: IC50 / human Arginine Vasopressin Receptor 1a (AVPR1a) (Homo sapiens (Human)) / O=C1OCC2c3nnc(C4CC5(C4)CN(c4ncccn4)C5)n3-c3ccc(Cl)cc3CN12 (centres unmarked) [compound 198]
Output: 0.1 to 0.5 µM

Task: Lookup: IC50 / human Arginine Vasopressin Receptor 1a (AVPR1a) (Homo sapiens (Human)) / CN1Cc2cc(Cl)ccc2-n2c(nnc2C2CC3(C2)CN(c2nccc4c2ncn4C)C3)C1 [compound 257]
Output: 0.5 to 1 µM

Task: Lookup: IC50 / human Arginine Vasopressin Receptor 1a (AVPR1a) (Homo sapiens (Human)) / CN1Cc2cc(Cl)ccc2-n2c(nnc2C2CC3(C2)CN(C(=O)C2CCC2)C3)C1 [compound 35]
Output: 0.1 to 0.5 µM

Task: Lookup: IC50 / human Arginine Vasopressin Receptor 1a (AVPR1a) (Homo sapiens (Human)) / CN1Cc2cc(Cl)ccc2-n2c(nnc2C2CC3(C2)CN(S(=O)(=O)C2CC2)C3)C1 [compound 26]
Output: 0.1 to 0.5 µM

Task: Lookup: IC50 / human Arginine Vasopressin Receptor 1a (AVPR1a) (Homo sapiens (Human)) / CC1(N2Cc3cc(Cl)ccc3-n3c(nnc3C3CC4(C3)CN(c3ccncn3)C4)C2)CC1 [compound 254]
Output: 0.1 to 0.5 µM

###

- protocol: MDR1-MDCK effective efflux assay (Transwell, 10 μM, 1 hour), wild-type MDCK cells
- Assay type: in vitro ADME
- particulars: dog, MDCK, pH 7.4, Papp AB WT
measurementType: Papp A→B at 1 h, 10 μM

Worked cases, Papp A→B at 1 h, 10 μM given:
compound=CC(C)OC(=O)N1Cc2cc(Cl)ccc2-n2c(nnc2C2CC3(C2)CN(C(=O)C2(F)CC2)C3)C1 measurementtype="Papp A→B at 1 h, 10 μM" reportedresult="< 7 ×10⁻⁶ cm/s"
compound=CC(=O)N1Cc2cc(Cl)ccc2-n2c(nnc2C2CC3(C2)CN(c2cccc(C#N)n2)C3)C1 measurementtype="Papp A→B at 1 h, 10 μM" reportedresult="10 to 20 ×10⁻⁶ cm/s"
compound=COC(=O)N1Cc2cc(Cl)ccc2-n2c(nnc2C2CC3(C2)CN(c2cccc(C)n2)C3)C1 measurementtype="Papp A→B at 1 h, 10 μM" reportedresult="> 20 ×10⁻⁶ cm/s"
compound=Clc1ccc2c(c1)CN(C1COC1)Cc1nnc(C3CC4(C3)CN(c3ccccn3)C4)n1-2 measurementtype="Papp A→B at 1 h, 10 μM" reportedresult="> 20 ×10⁻⁶ cm/s"
compound="CCOC(=O)N1Cc2cc(Cl)ccc2-n2c(C3CC4(C3)CN(c3ncccn3)C4)nnc2C1C (stereo not shown)" measurementtype="Papp A→B at 1 h, 10 μM" reportedresult="> 20 ×10⁻⁶ cm/s"

Task: Which measured Papp A→B at 1 h, 10 μM value corresponds to `CCC(=O)N1Cc2cc(Cl)ccc2-n2c(nnc2C2CC3(C2)CN(C(=O)C2CC2)C3)C1` ?
Output: < 7 ×10⁻⁶ cm/s

Task: Which measured Papp A→B at 1 h, 10 μM value corresponds to COC(=O)N1Cc2cc(Cl)ccc2-n2c(C3CC4(C3)CN(c3ncc(F)cn3)C4)nnc2C1C (stereo not shown) ?
Output: > 20 ×10⁻⁶ cm/s

Task: Which measured Papp A→B at 1 h, 10 μM value corresponds to `O=C(C1CC1)N1Cc2cc(Cl)ccc2-n2c(nnc2C2CC3(C2)CN(c2ccc(F)cn2)C3)C1` ?
Output: > 20 ×10⁻⁶ cm/s

Task: Which measured Papp A→B at 1 h, 10 μM value corresponds to `CCC(=O)N1Cc2cc(Cl)ccc2-n2c(nnc2C2CC3(C2)CN(c2cccc(F)n2)C3)C1` ?
Output: > 20 ×10⁻⁶ cm/s

Task: Which measured Papp A→B at 1 h, 10 μM value corresponds to CC1c2nnc(C3CC4(C3)CN(c3cnccn3)C4)n2-c2ccc(Cl)cc2CN1C(=O)C1(F)CC1 (stereo not shown) ?
Output: > 20 ×10⁻⁶ cm/s

Task: Which measured Papp A→B at 1 h, 10 μM value corresponds to CC1c2nnc(C3CC4(C3)CN(c3ncccn3)C4)n2-c2ccc(Cl)cc2CN1C(=O)OC1CC1 (stereo not shown) ?
Output: > 20 ×10⁻⁶ cm/s

Task: Which measured Papp A→B at 1 h, 10 μM value corresponds to `O=C(C1CC1)N1Cc2cc(Cl)ccc2-n2c(nnc2C2CC3(C2)CN(c2ccccn2)C3)C1` ?
Output: > 20 ×10⁻⁶ cm/s
